- target-or-system: Furin (Homo sapiens)
- assay-method-text: Furin counterscreen qHTS for Zika virus inhibitors (AID 1347149); further: nearly all actives have a fitted effect of over 70% in size
- measurement-conditions: furin enzymatic counterscreen, fluorogenic substrate; series mostly up to 114 µM
Results filed as inconclusive are left out. Activity calls are given as the source filed them. The call rests on the fitted dose curve; in most records, active means well fitted inhibition curve with a large enough effect; inconclusive means small, poorly fitted or top-dose-only effect; inactive means no such curve, though single readings can be large or run the other way.
Please state which outcome applies, choosing from True for active, False for inactive

compound | group
CC(C)c1nn2c(=O)cc(COC(=O)c3ccc(NC(=O)c4ccccc4Cl)cc3)nc2s1 | False
CC(=O)NC(CC(C)C)C(=O)NC(CC(C)C)C(=O)NC(C=O)CCCN=C(N)N (centres undefined) | False
N#Cc1ccc(OCC2CN(Cc3cccc(C(F)(F)F)c3)C(=O)c3c(ccnc3-c3ccc(OCC(=O)O)cc3)O2)cc1 (centres undefined) | False
CCOC(=O)O[C@H](C)OC(=O)C1N2C(=O)[C@H](NC(=O)[C@H](N)c3ccccc3)C2SC1(C)C (some centres undefined) | False
CCOC(=O)c1ccc(NC(=O)Cn2nnc(-c3ccc(C(F)(F)F)cc3)n2)cc1 | False

How did this test come out for `COC(=O)c1ccc(NC(=O)CSc2ccc(-c3sc(-c4ccccc4)nc3C)nn2)cc1` ?
True

Next record, please: `Cc1c2ccccc2c(CSC(=N)N)c2ccccc12`
False

Next record, please: `CN1CCN(C(=O)CCN2C(=O)/C(=C\c3ccccc3F)SC2=S)CC1`
False

Next record, please: `O=C(OCC#CCSc1nnc(-c2cc3ccccc3cc2O)o1)c1ccc(F)cc1`
True

Next record, please: `O=C(CSc1nnc(-c2cccc([S+](=O)([O-])NC3CCCC3)c2)n1-c1ccccc1)Nc1ccc(C(=O)O)cc1`
False

Next record, please: `O=C(Nc1ccc(C(=O)OCc2cc(=O)n3c4c(sc3n2)CCCC4)cc1)c1ccc(F)cc1`
True

Next record, please: CC(C)C(NC(=O)C(CCCN=C(N)N)NC(=O)NC(Cc1ccccc1)C(=O)O)C(=O)NC(C=O)CCCN=C(N)N (centres undefined)
True

Next record, please: `O=C(COc1ccccc1F)Nc1ccc(C(=O)OCc2cc(=O)n3nc(C4CC4)sc3n2)cc1`
False

Next record, please: C[S+](CC[C@H](N)C(=O)O)C[C@H]1O[C@@H](n2cnc3c(N)ncnc32)[C@H](O)[C@H]1O (some centres undefined)
False

Next record, please: `O=c1oc2ccc3ccccc3c2cc1-c1nnc(Nc2ccc(Cl)cc2Cl)s1`
False

Next record, please: `O=C(CNc1nnc(-c2ccc([S+](=O)([O-])N3CCCC3)cc2)n1-c1ccccc1)Nc1ccc(C(=O)O)cc1`
False

Next record, please: `O=C(Nc1ccc(C(=O)OCc2cc(=O)n3c4c(sc3n2)CCCC4)cc1)c1cccc(F)c1`
True

Next record, please: `Cc1nn2c(=O)cc(COC(=O)c3ccc(NC(=O)c4ccc(C(C)(C)C)cc4)cc3)nc2s1`
True

Next record, please: N#Cc1ccccc1OCC1CN(Cc2cccc(C(F)(F)F)c2)C(=O)c2c(ccnc2-c2ccc(OCC(=O)O)cc2)O1 (centres undefined)
False

Next record, please: `CCOC(=O)c1c(-c2ccc(C)cc2)csc1NC(=O)c1cc(-c2ccc(Cl)cc2)on1`
False

Next record, please: `N#C/C(=C\c1ccc(Br)cc1)c1nc(-c2cc3cc(Br)ccc3oc2=O)cs1`
False

Next record, please: CC1CCN(C(c2ccc(F)cc2)c2ccc(C(C)C(=O)O)cc2-c2ccc(C(F)(F)F)cc2)CC1 (centres undefined)
False

Sourced from PubChem BioAssay (NCATS)
